# Tested on: Primary T cells
# Assay method text: Cytotoxicity, viability by flow cytometry
# Assay type: cell-based
Overview of recorded TD50 for various molecules

Worked cases, answers included:
- CNS(=O)(=O)Nc1cc(Nc2cc(-c3ccccc3OC)ncn2)ccc1OC: 3 µM
- COc1cc(F)ccc1-c1cc(Nc2cc(N)c(OC)c(F)c2)ncn1: >20 µM
- COc1cc(Nc2cc(-c3ccccc3OC)ncn2)ccc1N: >2 µM
- COc1ccc(Nc2cc(-c3ccccc3OC)ncn2)cc1C(=O)NCc1ccncc1: >0.5 µM
- CCOc1ccccc1-c1cc(Nc2ccc(OC)c(C(N)=O)c2)ncn1: 5 µM

Query: Which measured TD50 value corresponds to `COc1ccccc1-c1cc(Nc2ccc(C(N)=O)c(Cl)c2)ncn1` ?
Result: >10 µM

Query: Fill in: TD50 of `CCOc1ccccc1-c1cc(Nc2ccc(OC)c(N)c2)ncn1` is ___
Result: 4 µM

Query: Name the recorded TD50 for `COc1ccccc1-c1cc(Nc2ccc(N3CCOCC3)c(CO)c2)ncn1` .
Result: >0.5 µM

Query: Entry `COc1cc(F)ccc1-c1cc(Nc2cc(F)c(OC)c(C(N)=O)c2)ncn1` : reported TD50 = ?
Result: >20 µM
